- Tested on: Phakopsora pachyrhizi (F129L)
- measurement-protocol: Protective control of soybean rust on soybeans (PHAKPA P2)
- Assay type: in vivo
- experimental-setup: protective P2, 16 ppm, soybean rust F129L isolate
Cut-off 2% on % PHAKPA (F129L) Disease level P2 at 16 ppm: below means YES, at or above means NO.

>>> print(df.to_string())
                           smiles_structure  group
0  CNC(=O)/C(=N/OC)c1cccc(C)c1CO/N=C(\C)c1c(F)cc(F)cc1C(F)(F)F    YES

### Prompt Answer whether the compound `CNC(=O)/C(=N/OC)c1cccc(C)c1CO/N=C(\C)c1ccc(F)cc1OC(F)(F)F` has % PHAKPA (F129L) Disease level P2 at 16 ppm strictly less than 2%
### Response YES

### Prompt Answer whether the compound `CNC(=O)/C(=N/OC)c1cccc(C)c1CO/N=C(\C)c1ccc(OC(F)(F)F)cc1OC(F)(F)F` has % PHAKPA (F129L) Disease level P2 at 16 ppm strictly less than 2%
### Response NO

### Prompt Answer whether the compound `CO/C=C(/C(=O)OC)c1cccc(C)c1CO/N=C(\C)c1cccc(C(F)(F)F)c1` has % PHAKPA (F129L) Disease level P2 at 16 ppm strictly less than 2%
### Response YES

### Prompt Answer whether the compound `CNC(=O)/C(=N/OC)c1cccc(C)c1CO/N=C(\C)c1c(F)ccc(F)c1OC(F)(F)F` has % PHAKPA (F129L) Disease level P2 at 16 ppm strictly less than 2%
### Response YES

### Prompt Answer whether the compound `CNC(=O)/C(=N/OC)c1cccc(C)c1CO/N=C(\C)c1cc(C(F)(F)F)cc(F)c1NC` has % PHAKPA (F129L) Disease level P2 at 16 ppm strictly less than 2%
### Response NO

### Prompt Answer whether the compound `CNC(=O)/C(=N/OC)c1cccc(C)c1CO/N=C(\C)c1ccccc1CC(C)C` has % PHAKPA (F129L) Disease level P2 at 16 ppm strictly less than 2%
### Response NO

### Prompt Answer whether the compound `CNC(=O)/C(=N/OC)c1cccc(C)c1CO/N=C(\C)c1ccc(OC(F)(F)F)cc1C(F)(F)F` has % PHAKPA (F129L) Disease level P2 at 16 ppm strictly less than 2%
### Response YES

### Prompt Answer whether the compound `CO/N=C(/C(=O)OC)c1cccc(C)c1CO/N=C(\C)c1ccccc1CC(F)(F)F` has % PHAKPA (F129L) Disease level P2 at 16 ppm strictly less than 2%
### Response NO

### Prompt Answer whether the compound `CNC(=O)/C(=N/OC)c1cccc(C)c1CO/N=C(\COC)c1ccccc1` has % PHAKPA (F129L) Disease level P2 at 16 ppm strictly less than 2%
### Response YES

### Prompt Answer whether the compound `CO/N=C(/C(=O)OC)c1cccc(C)c1CO/N=C(\C)c1ccc(F)cc1Cl` has % PHAKPA (F129L) Disease level P2 at 16 ppm strictly less than 2%
### Response NO

### Prompt Answer whether the compound `CO/N=C(/C(=O)OC)c1cccc(C)c1CO/N=C(\C)c1cccc(C2CC2)c1` has % PHAKPA (F129L) Disease level P2 at 16 ppm strictly less than 2%
### Response NO

### Prompt Answer whether the compound `CO/N=C(/C(=O)OC)c1cccc(C)c1CO/N=C(\C)c1c(F)ccc(F)c1OC(F)(F)F` has % PHAKPA (F129L) Disease level P2 at 16 ppm strictly less than 2%
### Response NO

### Prompt Answer whether the compound `CNC(=O)/C(=N/OC)c1cccc(C)c1CO/N=C(\C)c1ccccc1C1(C)CC1` has % PHAKPA (F129L) Disease level P2 at 16 ppm strictly less than 2%
### Response NO

----------
Reported values of % PHAKPA (F129L) Disease level P2 at 16 ppm for individual entries
- System: Phakopsora pachyrhizi (F129L)
- measurement-protocol: Protective control of soybean rust on soybeans (PHAKPA P2)
- Assay type: in vivo
- experimental-setup: protective P2, 16 ppm, soybean rust F129L isolate
Form entry: value (%) — number only.

Previously resolved entries follow.
In [3]: df
Out[3]:
                           smiles_structure                  target_entity  assay_result
0  CNC(=O)/C(=N/OC)c1cccc(C)c1CO/N=C(\CC(F)(F)F)c1cc(Cl)cc(Cl)c1  Phakopsora pachyrhizi (F129L)            83
1  CNC(=O)/C(=N/OC)c1cccc(C)c1CO/N=C(\C)c1cccc(C(C)(F)F)c1  Phakopsora pachyrhizi (F129L)             0
2  CNC(=O)/C(=N/OC)c1cccc(C)c1CO/N=C(\C)c1ccccc1OCOC  Phakopsora pachyrhizi (F129L)            40
3  CO/N=C(/C(=O)OC)c1cccc(C)c1CO/N=C(\C)c1c(C)cccc1F  Phakopsora pachyrhizi (F129L)            50
4  CNC(=O)/C(=N/OC)c1cccc(C)c1CO/N=C(\C)c1ccc(Cl)cc1  Phakopsora pachyrhizi (F129L)             0
5  CO/N=C(/C(=O)OC)c1cccc(C)c1CO/N=C(\C)c1ccc(OC)cc1OC(F)(F)F  Phakopsora pachyrhizi (F129L)            27

// next entry
### Prompt Which % PHAKPA (F129L) Disease level P2 at 16 ppm value belongs to `CO/N=C(/C(=O)OC)c1cccc(C)c1CO/N=C(\C)c1c(F)cc(F)cc1OC(F)(F)F` ?
### Response 18

----------
- Tested on: Phakopsora pachyrhizi (F129L)
- measurement-protocol: Protective control of soybean rust on soybeans (PHAKPA P2)
- Assay type: in vivo
- experimental-setup: protective P2, 4 ppm, F129L isolate
observable: % PHAKPA (F129L) Disease level P2 at 4 ppm (%)
Form entry: value (%) — number only.

                           smiles_structure  assay_result
0  CO/N=C(/C(=O)OC)c1cccc(C)c1CO/N=C(\C)c1cccc(Cl)c1C(F)(F)F           100
1  CO/N=C(/C(=O)OC)c1cccc(Br)c1CO/N=C(\C)c1ccccc1            43

// next entry
### Prompt Checklist item: % PHAKPA (F129L) Disease level P2 at 4 ppm tested on Phakopsora pachyrhizi (F129L), entry `CNC(=O)/C(=N/OC)c1cccc(C)c1CO/N=C(\C)c1ccc(-c2ccc(F)cc2)cc1C(F)(F)F` , value?
### Response 7
